molecular target: B1R receptor of the rat (rB1R) (Rattus norvegicus); construct: host or cells: CHO K1 cells; experiment: FLIPR Ca2+ assay on rB1R-transfected CHO K1 cells, antagonistic action; assay type: cell-based; details: CHO-K1, 10 μM test substance; agonist Des-Arg9-bradykinin 100 nM; % of maximum achievable inhibition; read-out: rB1R [10 μM] % inhibition
quantity-measured: inhibition at 10 µM (%)
Your answer is read as %, so omit the unit and give the number.

Q) I have this compound here, COc1cc(C)c(S(=O)(=O)N(C)CCOCC(=O)NC2CCC(Cc3ccccc3C)(N(C)C)CC2)c(C)c1 (stereo not shown) , and I need its recorded inhibition at 10 µM.
A) 95

Q) Param item: COc1cc(C)c(S(=O)(=O)N2CCCCC2COCC(=O)N(C)CC2CCC(CCc3ccccc3)(N3CCN(C)CC3)CC2)c(C)c1 (stereo not shown)
A) 111

Q) Param item: COc1cc(C)c(S(=O)(=O)N(C)CCOCC(=O)N(C)CC2CCC(c3ccccc3)(N3CCCC3)CC2)c(C)c1 (stereo not shown)
A) 101

Q) Param item: Cc1cc(S(=O)(=O)N2CCCCC2CCC(=O)N2CCC(Cc3ccccc3)(N(C)C)CC2)c(C)cc1Cl (stereo not shown)
A) 99

Q) Param item: "COc1cc(C)c(S(=O)(=O)N(C)CCOCC(=O)N2CCC(Cc3ccccc3)(N(C)C)CC2)c(C)c1"
A) 100

Q) Param item: COc1cc(C)c(S(=O)(=O)N2CCCCC2COCC(=O)N2CCC(c3ccccc3)(N3CCN(c4ccncc4)CC3)CC2)c(C)c1 (stereo not shown)
A) 100

Q) Param item: COc1cc(C)c(S(=O)(=O)N(C)CCOCC(=O)NC2CCC(c3cccc(F)c3)(N(C)C)CC2)c(C)c1 (stereo not shown)
A) 100

Q) Param item: COc1cc(C)c(S(=O)(=O)N2CCCCC2COCC(=O)NC2CCC(c3ccccc3)(N3CCCC3)CC2)c(C)c1 (stereo not shown)
A) 108

Q) Param item: COc1cc(C)c(S(=O)(=O)N2CCCCC2CCCC(=O)N2CCC(c3cccc(F)c3)(N3CCN(C)CC3)CC2)c(C)c1 (stereo not shown)
A) 101

Q) Param item: CN(CCC1CCC(CCc2ccccc2)(N(C)C)CC1)C(=O)CC(NS(=O)(=O)c1ccc2ccccc2c1)c1ccccc1 (stereo not shown)
A) 85

Q) Param item: O=C(COCC1CCCCN1S(=O)(=O)c1c(Cl)cc(Cl)cc1Cl)NC1CCC(c2ccccc2)(N2CCCC2)CC1 (stereo not shown)
A) 113

Q) Param item: "COc1cc(C)c(S(=O)(=O)N(C)CCOCC(=O)N2CCC(c3cccc(F)c3)(N3CCN(C)CC3)CC2)c(C)c1"
A) 101

Q) Param item: CN(CCCC1CCC(CCc2ccccc2)(N2CCCC2)CC1)C(=O)CC1CCCCN1S(=O)(=O)c1cccc(C(F)(F)F)c1 (stereo not shown)
A) 38

Q) Param item: COc1cc(C)c(S(=O)(=O)N(C)CCOCC(=O)NC2CCC(c3ccccc3)(N3CCCCC3)CC2)c(C)c1 (stereo not shown)
A) 90

Q) Param item: CN1CCN(C2(Cc3ccccc3)CCN(C(=O)COCC3CCc4ccccc4N3S(=O)(=O)c3ccc(Cl)c(Cl)c3)CC2)CC1 (stereo not shown)
A) 79

Q) Param item: CN(C)C1(c2ccccc2)CCC(NC(=O)COCCN(C)S(=O)(=O)c2c(Cl)cc(Cl)cc2Cl)CC1 (stereo not shown)
A) 36

Q) Param item: COc1cc(C)c(S(=O)(=O)N2CCCCC2COCC(=O)N(C)CCC2CCC(c3ccccc3)(N(C)C)CC2)c(C)c1 (stereo not shown)
A) 99

Q) Param item: COc1cc(C)c(S(=O)(=O)N2CCCCC2COCC(=O)N2CCC(Cc3ccccc3)(N(C)C)CC2)c(C)c1 (stereo not shown)
A) 100

Q) Param item: COc1cc(C)c(S(=O)(=O)N2CCCC2COCC(=O)NC2CCC(c3ccccc3)(N3CCOCC3)CC2)c(C)c1 (stereo not shown)
A) 98

====

target: B1R receptor of the rat (rB1R) (Rattus norvegicus, UniProt P97583); construct: host or cells: CHO K1 cells; test: FLIPR Ca2+ assay on rB1R-transfected CHO K1 cells, antagonistic action; type: cell-based; conditions: CHO-K1, 10 μM test substance; agonist Des-Arg9-bradykinin 100 nM; % of maximum achievable inhibition; read-out: rB1R [10 μM] % inhibition
Sequence (P97583 whole entry): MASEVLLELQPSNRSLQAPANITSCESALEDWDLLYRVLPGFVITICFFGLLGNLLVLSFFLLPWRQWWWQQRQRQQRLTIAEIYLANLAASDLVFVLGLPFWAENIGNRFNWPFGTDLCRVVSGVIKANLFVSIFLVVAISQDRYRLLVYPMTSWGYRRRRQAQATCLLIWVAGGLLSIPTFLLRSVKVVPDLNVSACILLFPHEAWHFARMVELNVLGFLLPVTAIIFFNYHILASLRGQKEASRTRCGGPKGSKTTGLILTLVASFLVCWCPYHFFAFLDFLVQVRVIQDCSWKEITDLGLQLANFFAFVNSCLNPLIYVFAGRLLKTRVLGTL
For each of the compounds below, state its inhibition at 10 µM.
Just the number plus its unit, please.

Q) I have this compound here, CN(CCC1CCC(Cc2ccccc2)(N(C)C)CC1)C(=O)COCC1CCc2ccccc2N1S(=O)(=O)c1ccc(Cl)c(Cl)c1 (stereo not shown) , and I need its recorded inhibition at 10 µM.
A) 100%

Q) Param item: CN1CCN(C2(c3cccc(F)c3)CCN(C(=O)COCC3COc4ccccc4N3S(=O)(=O)c3ccccc3C(F)(F)F)CC2)CC1 (stereo not shown)
A) 97%

Q) Param item: Cc1cc(S(=O)(=O)N2CCCCC2CCC(=O)N(C)CCCC2CCC(c3ccccc3)(N3CCCC3)CC2)c(C)cc1Cl (stereo not shown)
A) 32%

Q) Param item: COc1cc(C)c(S(=O)(=O)N2CCCCC2COCC(=O)N(C)CCC2CCC(CCc3ccccc3)(N3CCCC3)CC2)c(C)c1 (stereo not shown)
A) 100%

Q) Param item: "COc1cc(C)c(S(=O)(=O)N(CCOCC(=O)N2CCC(c3cccc(F)c3)(N3CCN(C)CC3)CC2)Cc2ccccc2)c(C)c1"
A) 101%

Q) Param item: O=C(COCC1CCc2ccccc2N1S(=O)(=O)c1ccc(Cl)c(Cl)c1)N1CCC(c2ccccc2)(N2CCN(c3ccncc3)CC2)CC1 (stereo not shown)
A) 88%

Q) Param item: COc1cc(C)c(S(=O)(=O)N2CCCCC2COCC(=O)NC2CCC(Cc3ccccc3)(N3CCOCC3)CC2)c(C)c1 (stereo not shown)
A) 100%

Q) Param item: CN1CCN(C2(c3cccc(F)c3)CCN(C(=O)COCC3CCc4ccccc4N3S(=O)(=O)c3ccc4ccccc4c3)CC2)CC1 (stereo not shown)
A) 101%

Q) Param item: COc1cc(C)c(S(=O)(=O)N2CCCCC2COCCC(=O)N2CCC(c3cccc(F)c3)(N3CCN(C)CC3)CC2)c(C)c1 (stereo not shown)
A) 100%

Q) Param item: COc1cc(C)c(S(=O)(=O)N(C)CCOCC(=O)N(C)CC2CCC(CCc3ccccc3)(N3CCN(C)CC3)CC2)c(C)c1 (stereo not shown)
A) 90%

Q) Param item: COc1cc(C)c(S(=O)(=O)N(C)CCOCC(=O)NC2CCC(CCc3ccccc3)(N(C)C)CC2)c(C)c1C (stereo not shown)
A) 65%

Q) Param item: COc1cc(C)c(S(=O)(=O)N2CCCCC2COCC(=O)N(C)CCCC2CCC(Cc3ccccc3)(N3CCCC3)CC2)c(C)c1 (stereo not shown)
A) 98%

Q) Param item: COc1cc(C)c(S(=O)(=O)N(C)CCOCC(=O)N(C)CC2CCC(CCc3ccccc3)(N3CCCC3)CC2)c(C)c1 (stereo not shown)
A) 100%

Q) Param item: CN(CCCC1CCC(c2ccccc2)(N2CCCC2)CC1)C(=O)CC1CCCCN1S(=O)(=O)c1cccc(C(F)(F)F)c1 (stereo not shown)
A) 101%

Q) Param item: Cc1cc(S(=O)(=O)N2CCCCC2CCC(=O)N(C)CCC2CCC(Cc3ccccc3)(N3CCCC3)CC2)c(C)cc1Cl (stereo not shown)
A) 70%

Q) Param item: Cc1cc(S(=O)(=O)N2CCCCC2CCC(=O)N2CCC(Cc3ccccc3)(N3CCN(C)CC3)CC2)c(C)cc1Cl (stereo not shown)
A) 49%

Q) Param item: Cc1cc(S(=O)(=O)N2CCCCC2CCC(=O)N(C)CCC2CCC(CCc3ccccc3)(N3CCCC3)CC2)c(C)cc1Cl (stereo not shown)
A) 47%

Q) Param item: CN1CCN(C2(c3ccc(F)cc3)CCN(C(=O)CC(NS(=O)(=O)c3ccc4ccccc4c3)c3ccccc3)CC2)CC1 (stereo not shown)
A) 91%

Q) Param item: COc1cc(C)c(S(=O)(=O)N(C)CCOCC(=O)N(C)CCCC2CCC(CCc3ccccc3)(N3CCCC3)CC2)c(C)c1 (stereo not shown)
A) 97%

Q) Param item: CN(CCOCC(=O)NC1CCC(c2ccccc2)(N2CCCC2)CC1)S(=O)(=O)c1ccc(Cl)cc1Cl (stereo not shown)
A) 75%

Q) Param item: "COc1cc(C)c(S(=O)(=O)N(C)CCOCC(=O)N2CCC(c3ccc(F)cc3)(N3CCN(C)CC3)CC2)c(C)c1"
A) 101%

Q) Param item: COc1cc(C)c(S(=O)(=O)N(C)CCOCC(=O)N(C)CCC2CCC(c3cccnc3)(N(C)C)CC2)c(C)c1 (stereo not shown)
A) 101%

Q) Param item: CN(CCOCC(=O)NC1CCC(Cc2ccccc2)(N2CCCC2)CC1)S(=O)(=O)c1c(Cl)cc(Cl)cc1Cl (stereo not shown)
A) 60%

Q) Param item: COc1cc(C)c(S(=O)(=O)N2CCCC(COCC(=O)NC3CCC(c4ccccc4)(N4CCCC4)CC3)C2)c(C)c1 (stereo not shown)
A) 63%

Q) Param item: Cc1cc(S(=O)(=O)N2CCCCC2CCC(=O)N(C)CC2CCC(c3ccccc3)(N3CCCC3)CC2)c(C)cc1Cl (stereo not shown)
A) 21%
